Measurement description: Pharmacokinetic evaluation in mice, IV and PO
Format: in vivo, Balb/c female mice
Reported conditions: female, Balb/c; PO(2 mg/kg), mouse plasma
Description: The tested compound was mixed with 10% DMSO/50% PEG400/40% water, vortexized and ultrasonic to prepare 0.2 mg/mL or 0.4 mg/ml, approximately clarified solution, which was filtered by a microporous membrane and then standby. […] Drug concentration was analyzed by LC-MS/MS method, and pharmacokinetic parameters were calculated by Phoenix WinNonlin software (US Pharsight company). […]
Observed property: half-life

## Task Indicate its recorded half-life; the compound in question is COc1ccc(C(O)c2cc(-c3ccnc4c(F)c(N5CCOCC5)cc(F)c34)c(F)cc2Cl)nn1 (single isomer, unassigned)
## Result 6.25 h

## Task Indicate its recorded half-life; the compound in question is COc1ccc(C(O)c2cc(-c3cnnc4cc(N5CCOCC5)ccc34)c(F)cc2Cl)nn1 (stereo not drawn)
## Result 2.83 h

## Task Indicate its recorded half-life; the compound in question is COc1ccc([C@@H](O)c2cc(-c3nncc4cc(N5CCOCC5)ccc34)c(F)cc2Cl)nn1 [Embodiment M3814, reference compound]
## Result 2.14 h
